test: in vitro; details: human, MRC-5 cells (embryonal lung fibroblasts)
Residues, ends and D or L forms follow the SMILES beside them.

compound: CC[C@H](C)[C@H](NC(=O)[C@H](C)NC(=O)CNC(=O)[C@H](CCCNC(=N)N)NC(=O)[C@H](C)NC(=O)[C@H](CC(C)C)NC(=O)[C@H](CCC(=O)O)NC(=O)[C@H](CC(C)C)NC(=O)[C@H](C)NC(=O)[C@@H](N)CCC(=O)O)C(=O)N[C@@H](Cc1ccccc1)C(=O)N[C@@H](CCC(N)=O)C(=O)N[C@@H](C)C(N)=O [BINP] (H-EALELARGAIFQA-NH2)
measurement-units: %
viability at 144 h: 99.7
